All figures here come from the OligoGym collection.

biological target: ATG16L1; assay: pooled miR-30 sensor sort-seq; sequence = guide strand; details: shRNA; further: reference of the scale not given here
Provide the recorded sensor-assay potency score (higher = more potent) for the entries that follow.
Please give only the number in your answer, with no unit.

q: If you can, please state the reported sensor-assay potency score (higher = more potent) value of TTGTAGCTGATTGTCATTCCAT .
a: -0.0295

q: Could you do the same for TTTATGCAGACTTTGCTGCGTA , please?
a: -0.62

q: Could you do the same for TTTGTCCACACTGACAACGTGC , please?
a: -0.838

q: Could you do the same for TTTCTTGTAGCTGATTGTCATT , please?
a: -1.43

q: Could you do the same for TTGCAAAATCATTTGAAGCTGC , please?
a: 0.00437

q: Could you do the same for TTTCTTGTGTAATTCAGTCAGT , please?
a: -0.093

q: Could you do the same for TATCATTGCAACTGGATCCTGC , please?
a: 0.235
